molecular target: NMDAR2A expressing HEK cell membranes (Homo sapiens, UniProt Q12879); construct: expressed in transfected cells; host or cells: HEK cells (membrane extract); assay: NMDAR agonist assay, [3H]MK-801 binding, NMDAR2A; format: biochemical; details: 50 μM glutamate
Sequence (Q12879 23-1464, other chains not shown): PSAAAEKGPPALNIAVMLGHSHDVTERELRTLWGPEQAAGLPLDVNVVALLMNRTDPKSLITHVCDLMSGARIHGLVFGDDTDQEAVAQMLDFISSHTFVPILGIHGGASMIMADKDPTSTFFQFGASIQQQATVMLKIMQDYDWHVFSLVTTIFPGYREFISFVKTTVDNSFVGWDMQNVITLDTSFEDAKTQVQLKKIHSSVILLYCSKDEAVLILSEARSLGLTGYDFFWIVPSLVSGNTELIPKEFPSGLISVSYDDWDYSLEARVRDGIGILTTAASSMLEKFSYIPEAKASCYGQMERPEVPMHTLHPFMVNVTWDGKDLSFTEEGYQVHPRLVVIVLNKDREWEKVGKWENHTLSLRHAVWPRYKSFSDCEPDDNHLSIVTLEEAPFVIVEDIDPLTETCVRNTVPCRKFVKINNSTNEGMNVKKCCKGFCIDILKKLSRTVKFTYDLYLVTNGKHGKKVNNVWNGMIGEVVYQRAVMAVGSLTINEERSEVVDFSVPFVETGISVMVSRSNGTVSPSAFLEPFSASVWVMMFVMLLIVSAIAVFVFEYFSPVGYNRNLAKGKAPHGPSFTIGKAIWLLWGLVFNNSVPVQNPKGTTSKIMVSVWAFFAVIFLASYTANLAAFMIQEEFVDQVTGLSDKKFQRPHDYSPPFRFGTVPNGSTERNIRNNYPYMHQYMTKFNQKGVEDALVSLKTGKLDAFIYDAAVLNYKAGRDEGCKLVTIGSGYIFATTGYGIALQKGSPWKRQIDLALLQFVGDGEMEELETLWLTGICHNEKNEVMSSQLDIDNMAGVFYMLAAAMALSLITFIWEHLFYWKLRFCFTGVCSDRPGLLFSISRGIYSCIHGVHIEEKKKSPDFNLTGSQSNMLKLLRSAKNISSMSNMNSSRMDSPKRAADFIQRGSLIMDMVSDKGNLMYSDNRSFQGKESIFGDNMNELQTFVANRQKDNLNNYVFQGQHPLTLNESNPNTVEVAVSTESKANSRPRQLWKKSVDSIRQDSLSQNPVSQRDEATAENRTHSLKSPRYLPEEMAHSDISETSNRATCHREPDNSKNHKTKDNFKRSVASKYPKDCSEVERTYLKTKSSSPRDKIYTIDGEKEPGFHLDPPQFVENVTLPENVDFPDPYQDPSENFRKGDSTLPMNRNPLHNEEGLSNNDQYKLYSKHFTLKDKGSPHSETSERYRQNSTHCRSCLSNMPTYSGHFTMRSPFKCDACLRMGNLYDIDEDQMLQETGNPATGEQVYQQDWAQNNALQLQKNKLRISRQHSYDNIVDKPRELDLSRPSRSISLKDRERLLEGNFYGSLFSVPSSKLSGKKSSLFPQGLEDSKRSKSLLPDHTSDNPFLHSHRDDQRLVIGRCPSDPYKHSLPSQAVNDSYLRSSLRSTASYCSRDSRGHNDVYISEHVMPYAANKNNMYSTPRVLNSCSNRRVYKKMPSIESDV
quantity kind: NMDAR2A A: % maximal [3H]MK-801 binding relative to 1 mM glycine

// solved cases for NMDAR2A A: % maximal [3H]MK-801 binding relative to 1 mM glycine follow
compound	measured result
COc1ccc(CN2CC3(CCNC(=S)C3)C2=S)cc1 (single isomer, unassigned)	+ (<100%=+)
O=C1CC2(CCN1)CN(Cc1ccccc1)C2=O (single isomer, unassigned) [CU]	− (−=0)
O=C1CC2(CCN1)CN(Cc1ccccc1)C2=O (single isomer, unassigned) [CV]	+ (<100%=+)
CN1CCC2(CC1=O)CN(Cc1ccccc1)C2=O (single isomer, unassigned)	+ (<100%=+)
C[C@@H](O)[C@@H](C(=O)N(C)C)N1CC2(CCNC(=O)C2)C1=O (single isomer, unassigned) [CC]	− (−=0)
NC(=O)CN1CC2(CCNC(=O)C2)C1=O (single isomer, unassigned) [DD]	− (−=0)

Problem: // NMDAR2A A: % maximal [3H]MK-801 binding relative to 1 mM glycine lookup, key: CN1CC2(CCNC(=O)C2)C1=O (single isomer, unassigned)
Solution: + (<100%=+)

Problem: Give the measured NMDAR2A A: % maximal [3H]MK-801 binding relative to 1 mM glycine of COc1ccc(CN2CC3(CCN(CC(C)C)C(=O)C3)C2=O)cc1 (single isomer, unassigned) .
Solution: + (<100%=+)
